- System: Staphylococcus aureus
assayEndpoint: MIC

>>> result("COC(=O)C[C@H](N)CC(=O)O")
"20 µg/mL"
>>> result("CCOC(=O)C[C@H](N)CC(=O)O")
"30 to 100 µg/mL"
>>> result("COC(=O)C[C@@H](N)CC(=O)O")
"10 to 100 µg/mL"
>>> result("CCOC(=O)C[C@@H](N)CC(=O)O")
"20 to 100 µg/mL"
